normalized growth values for the molecules below.
PROTOCOL SUMMARY: chemical genetic growth profiling, strain panel (AID 1159580);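 also: tested at 20 µM; growth read once vehicle control cultures reached saturation at 30 °C; 1 = growth at the plate median or of vehicle wells; lower values mean less growth of the strain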
CONDITION DESCRIPTION: S. cerevisiae deletion strains, growth OD, locus YNL071W, strain lat1, hits give low values
In all, about 5,500 compounds went through this assay and about 2,000 (36%) were called active. About 18% were inconclusive and are not listed. This is one part of the list.
PARAMETER: normalized growth

molecule="CC1(C)C(=O)C=C[C@@]2(C)C1C[C@@H](O)[C@]1(C)C2CC[C@@]2(C)[C@H](c3ccoc3)OC(=O)[C@H]3O[C@]321 (some centres not stated)" parameter="normalized growth" readout_number=1
molecule="C[C@]12CCC3c4ccc(OS(=O)(=O)O)cc4CCC3C1CC[C@H]2O (some centres not stated)" parameter="normalized growth" readout_number=0.988
molecule=COc1ccc(-c2oc3cc(O[C@H]4O[C@H](CO)[C@@H](O)[C@H](O)[C@H]4O)c(OC)c(O)c3c(=O)c2OC)cc1O parameter="normalized growth" readout_number=1.01
molecule="COc1ccc2c(c1)CCC1C2CCC2(C)C1C[C@@H](O)C2O (some centres not stated)" parameter="normalized growth" readout_number=0.833
molecule="COc1ccc2c(c1)CCC1C2CC[C@@]2(C)C1CC[C@@H]2O (some centres not stated)" parameter="normalized growth" readout_number=0.468
molecule=O=c1c(O)c(-c2ccc(O)cc2O)oc2cc(O)cc(O)c12 parameter="normalized growth" readout_number=1
molecule="CC1(C)C2CC(=O)[C@]3(C)C(CC[C@@]4(C)[C@H](c5ccoc5)OC(=O)C5OC543)[C@@]2(C)[C@@H](O)C[C@H]1O (some centres not stated)" parameter="normalized growth" readout_number=1
molecule="CC(C)c1c(O)ccc2c1CCC1[C@@](C)(C=O)CCC[C@]21C (some centres not stated)" parameter="normalized growth" readout_number=0.424
molecule="CC(=O)Oc1ccc2c(c1C(C)C)CCC1C(C)(C)CCC[C@]21C (some centres not stated)" parameter="normalized growth" readout_number=1.01
molecule="CC1(C)C2CC(=O)[C@]3(C)C(CC[C@@]4(C)[C@H](c5ccoc5)OC(=O)[C@H]5O[C@]543)[C@@]2(C)C(=O)C[C@H]1O (some centres not stated)" parameter="normalized growth" readout_number=1
molecule="CC1(C)C(=O)C=C[C@@]2(C)C1CC(=O)[C@]1(C)C2CC[C@@]2(C)[C@H](c3ccoc3)OC(=O)[C@H]3O[C@]321 (some centres not stated)" parameter="normalized growth" readout_number=1
molecule="CC(C)c1c(O)ccc2c1CCC1C(C)(C)CCC[C@]21C (some centres not stated)" parameter="normalized growth" readout_number=0.13
molecule=CCCCOc1cc(C(=O)NCCN(CC)CC)c2ccccc2n1 parameter="normalized growth" readout_number=0.985
molecule="C[C@@H]1O[C@@H](OC[C@H]2OC(Oc3c(-c4ccc(O)c(O)c4)oc4cc(O)cc(O)c4c3=O)[C@H](O)[C@@H](O)[C@@H]2O)[C@H](O)[C@H](O)[C@H]1O (some centres not stated)" parameter="normalized growth" readout_number=1.02
molecule="COC(=O)[C@]1(C)CCC[C@]2(C)c3ccc(C(C)C)cc3C(=O)CC12 (some centres not stated)" parameter="normalized growth" readout_number=0.952
molecule="CC1O[C@@H](Oc2c(-c3ccc(O)c(O)c3)oc3cc(O)cc(O)c3c2=O)[C@H](O)[C@H](O)[C@H]1O (some centres not stated)" parameter="normalized growth" readout_number=0.992
molecule=COc1ccc(-c2cc(=O)c3c(O)cc(O[C@@H]4O[C@H](CO[C@H]5O[C@H](C)[C@@H](O)[C@H](O)[C@@H]5O)[C@@H](O)[C@H](O)[C@H]4O)cc3o2)cc1O parameter="normalized growth" readout_number=1.03

----------
PROTOCOL SUMMARY: chemical genetic growth profiling, strain panel (AID 1159580)
CONDITION DESCRIPTION: S. cerevisiae deletion strains, growth OD, locus YCL061C, strain MRC1, hits give low values
In all, about 5,500 compounds went through this assay and about 2,000 (36%) were called active. Inconclusive results (about 18%) are left out. The list shows a part of the results.
Examples of molecules with documented normalized growth follow.
PARAMETER: normalized growth

molecule="CCN(Cc1ccncc1)C(=O)C(CO)c1ccccc1 (stereo unspecified)" readout_number=1.03
molecule="COc1ccc2c(c1)CCC1C2CC[C@@]2(C)C1CC[C@@H]2O (stereo partly specified)" readout_number=0.854
molecule=O=C1[O][Bi][O]c2ccccc21 readout_number=1.05
molecule="NS(=O)(=O)c1cc(C2(O)NC(=O)c3ccccc32)ccc1Cl (stereo unspecified)" readout_number=0.986
molecule=COC(=O)c1c(C)cc(O)cc1O readout_number=1.01
molecule=CCOC(=O)c1c(C)cc(OC)cc1O readout_number=0.972
molecule="C[C@H]1O[C@H](OC2[C@@H](O)[C@@H](O)C(O)[C@H](O)[C@H]2O)[C@@H](N)C[C@@H]1N=C(N)C(=O)O (stereo partly specified)" readout_number=0.999
molecule="C[C@]12CCC3c4ccc(OS(=O)(=O)O)cc4CCC3C1CC[C@H]2O (stereo partly specified)" readout_number=0.975
molecule=FC(F)(F)c1ccc(Cl)c(NC(=S)NN=C2CCCCCC2)c1 readout_number=1.01
molecule=Cc1cc(OC(=O)c2c(C)cc(O)cc2O)cc(O)c1C(=O)O readout_number=0.989
molecule=C=C[C@H]1CN2CC[C@H]1C[C@@H]2[C@@H](OC(=O)OCC)c1ccnc2ccc(OC)cc12 readout_number=0.979

----------
PROTOCOL SUMMARY: chemical genetic growth profiling, strain panel (AID 1159580);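 also: tested at 20 µM; growth read once vehicle control cultures reached saturation at 30 °C; 1 = growth at the plate median or of vehicle wells; lower values mean less growth of the strain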
CONDITION DESCRIPTION: S. cerevisiae deletion strains, growth OD, locus YNL209W, strain ssb2, hits give low values
Out of some 5,500 compounds screened, about 2,000 (36%) were called active. Inconclusive results (about 18%) are left out. The list shows a part of the results.
Reported normalized growth by item:
PARAMETER: normalized growth

compound_string=COC1=CC(=O)C(O)=C/C1=C\C=C\c1ccccc1 parameter="normalized growth" readout_number=0.0644
compound_string=COC1=CC(=O)C(C(=O)c2ccccc2)=CC1=O parameter="normalized growth" readout_number=0.977
compound_string=COc1ccccc1/C=C\C(=O)O parameter="normalized growth" readout_number=1.01
compound_string=CN1C[C@H](C(=O)N[C@]2(C)O[C@@]3(O)[C@@H]4CCCN4C(=O)[C@H](Cc4ccccc4)N3C2=O)C[C@@H]2c3cccc4[nH]cc(c34)C[C@H]21 parameter="normalized growth" readout_number=0.981
compound_string=NC(N)=NC(=O)c1nc(Cl)c(N)nc1N parameter="normalized growth" readout_number=1

----------
PROTOCOL SUMMARY: chemical genetic growth profiling, strain panel (AID 1159580);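 also: tested at 20 µM; growth read once vehicle control cultures reached saturation at 30 °C; 1 = growth at the plate median or of vehicle wells; lower values mean less growth of the strain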
CONDITION DESCRIPTION: S. cerevisiae deletion strains, growth OD, locus YEL003W, strain gim4, hits give low values
About 2,000 (36%) of roughly 5,500 compounds were called active. Not shown: some 18% with an inconclusive outcome. The list shows a part of the results. Where a SMILES comes first, the peptide text is derived from it.
PARAMETER: normalized growth

compound=COC1=CC(=O)C(C(=O)c2ccccc2)=CC1=O result="0.976 (inactive)"
compound=O=c1c(O)c(-c2ccc(O)c(O)c2)oc2cc(O)cc(O)c12 result="0.879 (active)"
compound=COc1ccc(-c2oc3c(CC=C(C)C)c(O[C@@H]4O[C@H](CO)[C@@H](O)[C@H](O)[C@H]4O)cc(O)c3c(=O)c2O[C@@H]2O[C@@H](C)[C@H](O)[C@@H](O)[C@H]2O)cc1 result="1.03 (inactive)"
compound="C[C@@H]1O[C@@H](OC[C@H]2OC(Oc3c(-c4ccc(O)c(O)c4)oc4cc(O)cc(O)c4c3=O)[C@H](O)[C@@H](O)[C@@H]2O)[C@H](O)[C@H](O)[C@H]1O (some centres undefined)" result="1.01 (inactive)"
compound=COC1=CC(=O)C(O)=C/C1=C\C=C\c1ccccc1 result="0.0583 (active)"
compound=O=c1cc(-c2ccc(O)cc2)oc2cc(O[C@@H]3O[C@H](CO)[C@@H](O)[C@H](O)[C@H]3O)cc(O)c12 result="1.02 (inactive)"
compound="COC(=O)[C@H](Cc1ccccc1)NC(=O)[C@@H](N)CC(=O)O (H-Asp-Phe-OMe)" result="1.02 (inactive)"
compound=O=c1c(O)c(-c2ccc(O)c(O)c2)oc2c(O[C@@H]3O[C@H](CO)[C@H](O)[C@@H](O)[C@H]3O)c(O)cc(O)c12 result="1.02 (inactive)"
compound=O=c1c(O)c(-c2ccc(O)cc2O)oc2cc(O)cc(O)c12 result="0.976 (inactive)"

----------
PROTOCOL SUMMARY: chemical genetic growth profiling, strain panel (AID 1159580);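 also: tested at 20 µM; growth read once vehicle control cultures reached saturation at 30 °C; 1 = growth at the plate median or of vehicle wells; lower values mean less growth of the strain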
CONDITION DESCRIPTION: S. cerevisiae deletion strains, growth OD, locus YBR279W, strain paf1, hits give low values
Hit rate of the full screen: of about 5,500 compounds, about 2,000 (36%) were called active. Inconclusive results (about 18%) are left out. This is one part of the list.
PARAMETER: normalized growth

compound=CCCCCCCCCCCC1=C(O)C(=O)C=C(O)C1=O parameter="normalized growth" readout_number=0.762
compound="CC(C)N(CCC(C(N)=O)(c1ccccc1)c1ccccn1)C(C)C (centres undefined)" parameter="normalized growth" readout_number=0.0794
compound="CC(CC(C(N)=O)(c1ccccc1)c1ccccc1)N(C)C (centres undefined)" parameter="normalized growth" readout_number=0.995
compound="C[C@H]1O[C@H](OC2[C@@H](O)[C@@H](O)C(O)[C@H](O)[C@H]2O)[C@@H](N)C[C@@H]1N=C(N)C(=O)O (some centres undefined)" parameter="normalized growth" readout_number=0.986
compound="O=C1C=C2C(=CCOC2O)O1 (centres undefined)" parameter="normalized growth" readout_number=0.78
compound=O=C(O[C@@H]1Cc2c(O)cc(O)cc2O[C@@H]1c1cc(O)c(=O)c2c(O)c(O)cc([C@H]3Oc4cc(O)cc(O)c4C[C@H]3OC(=O)c3cc(O)c(O)c(O)c3)c2c1)c1cc(O)c(O)c(O)c1 parameter="normalized growth" readout_number=0.554
compound="CCN(Cc1ccncc1)C(=O)C(CO)c1ccccc1 (centres undefined)" parameter="normalized growth" readout_number=1.01
compound=COc1ccc(-c2oc3cc(O[C@H]4O[C@H](CO)[C@@H](O)[C@H](O)[C@H]4O)c(OC)c(O)c3c(=O)c2OC)cc1O parameter="normalized growth" readout_number=1
compound=NC(=O)CN1CCCC1=O parameter="normalized growth" readout_number=0.99
